Reported IC50 by item:
- experimental-system: Microsomal triglyceride transfer protein (MTP) from human small intestine microsome (Homo sapiens)
- Construct: Human small intestine microsome was dialyzed against 10 mM phosphate buffer; tissue Tissue Transforming Technologies, Inc; host or cells: human small intestine microsome
- test-summary: Inhibition test of interliposomal triglyceride (TG) transfer activity by MTP
- Type: biochemical
- measurement-context: purified MTP from human small intestine microsome, 37° C., 1.5 hours
- Experimental: Microsomal triglyceride transfer protein (MTP) from human small intestine microsome (manufactured by Tissue Transforming Technologies, Inc.) was purified in such a way described below. Human small intestine microsome was dialyzed against 10 mM phosphate buffer (300 mL, pH 6.8) twice for about 2 hours and once for further not less than 12 hours, at about 4° C. After dialysis, the mixture was centrifuged at 4° C. and 15,000×g for 5 minutes and then the supernatant was recovered. […]

[
  {
    "chemical-structure": "CN(C)C(=O)c1cc(CCCC(=O)Oc2ccc(C#N)cc2)ccc1NC(=O)c1ccccc1-c1ccc(C(F)(F)F)cc1",
    "IC50": "10 to 100 nM"
  },
  {
    "chemical-structure": "COC(=O)c1cc(OC)c(OC(=O)CCCc2ccc(NC(=O)c3ccc(C)nc3-c3ccc(C(F)(F)F)cc3)c(C(=O)N(C)C)c2)c(OC)c1",
    "IC50": "< 10 nM"
  },
  {
    "chemical-structure": "COC(=O)c1cc(OC)c(OC(=O)CCCc2ccc(NC(=O)c3ccc(C)nc3-c3ccc(C(F)(F)F)cc3)c(C(=O)N(C)C)c2)c(C(=O)OC)c1",
    "IC50": "< 10 nM"
  }
]

Input "Cc1noc(-c2ccc(OC(=O)CCCc3ccc(NC(=O)c4ccccc4-c4ccc(C(F)(F)F)cc4)c(C(=O)N(C)C)c3)cc2)n1" , output reported IC50.
< 10 nM

Fill in IC50 for record "COC(=O)c1cc(Cl)c(OC(=O)CCCc2ccc(NC(=O)c3ccc(C)nc3-c3ccc(C(F)(F)F)cc3)c(C(=O)N(C)C)c2)c(OC)c1"
< 10 nM

Provide IC50 value for the following compound: "COC(=O)c1ccc(OC(=O)CN(C)Cc2ccc(NC(=O)c3ccccc3-c3ccc(C(F)(F)F)cc3)c(C(=O)N(C)C)c2)cc1"
10 to 100 nM

// Input: "Cc1cccc(COC(=O)c2ccc(OC(=O)CCCc3ccc(NC(=O)c4ccc(C)nc4-c4ccc(C(F)(F)F)cc4)c(C(=O)N(C)C)c3)cc2)n1" . Output its IC50 only.
< 10 nM

----------
- experimental-system: Microsomal triglyceride transfer protein (MTP) from human small intestine microsome (Homo sapiens, UniProt P55157)
- Construct: Human small intestine microsome was dialyzed against 10 mM phosphate buffer; tissue Tissue Transforming Technologies, Inc; host or cells: human small intestine microsome
- Sequence (P55157 19-894): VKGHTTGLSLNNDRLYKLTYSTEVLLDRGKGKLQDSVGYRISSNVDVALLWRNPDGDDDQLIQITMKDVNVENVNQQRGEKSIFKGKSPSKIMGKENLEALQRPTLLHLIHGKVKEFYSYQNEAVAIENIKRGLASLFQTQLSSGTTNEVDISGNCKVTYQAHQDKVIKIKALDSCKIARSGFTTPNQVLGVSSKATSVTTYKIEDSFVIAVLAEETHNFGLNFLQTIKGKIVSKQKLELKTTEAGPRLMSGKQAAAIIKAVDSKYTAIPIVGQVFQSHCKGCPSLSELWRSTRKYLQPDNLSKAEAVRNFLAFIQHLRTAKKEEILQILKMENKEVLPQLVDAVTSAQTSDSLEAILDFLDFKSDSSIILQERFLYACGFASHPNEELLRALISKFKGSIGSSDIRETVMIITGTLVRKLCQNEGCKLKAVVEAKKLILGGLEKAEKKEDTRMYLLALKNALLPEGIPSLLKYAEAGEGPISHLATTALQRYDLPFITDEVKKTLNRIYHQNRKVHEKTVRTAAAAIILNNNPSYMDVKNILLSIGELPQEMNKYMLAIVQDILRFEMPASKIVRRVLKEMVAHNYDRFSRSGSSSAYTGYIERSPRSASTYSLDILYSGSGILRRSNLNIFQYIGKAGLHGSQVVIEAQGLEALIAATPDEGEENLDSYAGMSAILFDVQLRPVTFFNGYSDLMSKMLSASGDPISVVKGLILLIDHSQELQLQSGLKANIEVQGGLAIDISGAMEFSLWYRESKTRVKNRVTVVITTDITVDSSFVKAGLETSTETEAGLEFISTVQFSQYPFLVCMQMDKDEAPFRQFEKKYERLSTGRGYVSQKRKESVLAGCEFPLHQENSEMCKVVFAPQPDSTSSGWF
- Sequence (P07237 18-508 partner): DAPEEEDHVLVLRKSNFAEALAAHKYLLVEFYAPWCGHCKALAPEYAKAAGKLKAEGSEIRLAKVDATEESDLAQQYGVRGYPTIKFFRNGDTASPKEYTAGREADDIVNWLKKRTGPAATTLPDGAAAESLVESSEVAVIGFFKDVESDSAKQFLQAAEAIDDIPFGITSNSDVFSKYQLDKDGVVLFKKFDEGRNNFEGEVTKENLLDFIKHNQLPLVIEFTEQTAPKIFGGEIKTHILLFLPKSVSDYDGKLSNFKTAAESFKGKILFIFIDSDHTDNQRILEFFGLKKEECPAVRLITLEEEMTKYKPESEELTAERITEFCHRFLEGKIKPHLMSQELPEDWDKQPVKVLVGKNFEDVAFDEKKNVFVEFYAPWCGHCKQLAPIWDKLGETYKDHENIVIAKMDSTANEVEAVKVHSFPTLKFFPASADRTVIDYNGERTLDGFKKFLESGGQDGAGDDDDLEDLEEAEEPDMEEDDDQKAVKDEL
- test-summary: Inhibition test of interliposomal triglyceride (TG) transfer activity by MTP
- Format: biochemical
- measurement-context: purified MTP from human small intestine microsome, 37° C., 1.5 hours
- Description: Microsomal triglyceride transfer protein (MTP) from human small intestine microsome (manufactured by Tissue Transforming Technologies, Inc.) was purified in such a way described below. Human small intestine microsome was dialyzed against 10 mM phosphate buffer (300 mL, pH 6.8) twice for about 2 hours and once for further not less than 12 hours, at about 4° C. After dialysis, the mixture was centrifuged at 4° C. and 15,000×g for 5 minutes and then the supernatant was recovered. […]
// reported IC50 per item

Example entries and their recorded answers appear below.
[
  {
    "chemical-structure": "CCOc1cc(C(=O)OC)cc(Cl)c1OC(=O)CCCc1ccc(NC(=O)c2ccc(C)nc2-c2ccc(C(F)(F)F)cc2)c(C(=O)N(C)C)c1",
    "IC50": "< 10 nM"
  },
  {
    "chemical-structure": "CN(C)C(=O)c1cc(CCCC(=O)Oc2ccc(C(=O)OCc3ccncc3)cc2)ccc1NC(=O)c1ccccc1-c1ccc(C(F)(F)F)cc1",
    "IC50": "< 10 nM"
  }
]

Kindly indicate its recorded IC50. Item: "CN(C)C(=O)c1cc(CCC(=O)Oc2ccccc2)ccc1NC(=O)c1ccccc1-c1ccc(C(F)(F)F)cc1"
10 to 100 nM

----------
- experimental-system: Microsomal triglyceride transfer protein (MTP) from human small intestine microsome (Homo sapiens, UniProt P55157)
- Construct: Human small intestine microsome was dialyzed against 10 mM phosphate buffer; tissue Tissue Transforming Technologies, Inc; host or cells: human small intestine microsome
- test-summary: Inhibition test of interliposomal triglyceride (TG) transfer activity by MTP
- Assay type: biochemical
- measurement-context: purified MTP from human small intestine microsome, 37° C., 1.5 hours
- Procedure: Microsomal triglyceride transfer protein (MTP) from human small intestine microsome (manufactured by Tissue Transforming Technologies, Inc.) was purified in such a way described below. Human small intestine microsome was dialyzed against 10 mM phosphate buffer (300 mL, pH 6.8) twice for about 2 hours and once for further not less than 12 hours, at about 4° C. After dialysis, the mixture was centrifuged at 4° C. and 15,000×g for 5 minutes and then the supernatant was recovered. […]
observed-property: IC50

Solved cases (3 shown):
[
  {
    "chemical-structure": "CN(C)C(=O)c1cc(CCCC(=O)Oc2ccc(C(=O)O)cc2)ccc1NC(=O)c1ccccc1-c1ccc(C(F)(F)F)cc1",
    "observed-property": "IC50",
    "result": "100 to 1000 nM"
  },
  {
    "chemical-structure": "CN(C)C(=O)c1cc(CCCC(=O)Oc2ccc(C(=O)OCc3cccs3)cc2)ccc1NC(=O)c1ccccc1-c1ccc(C(F)(F)F)cc1",
    "observed-property": "IC50",
    "result": "< 10 nM"
  },
  {
    "chemical-structure": "CCCOC(=O)c1ccc(OC(=O)CCCc2ccc(NC(=O)c3ccccc3-c3ccc(C(F)(F)F)cc3)c(C(=O)N(C)C)c2)cc1",
    "observed-property": "IC50",
    "result": "< 10 nM"
  }
]

Give recorded IC50. "COC(=O)c1cc(C(=O)OC(C)C)ccc1OC(=O)CCCc1ccc(NC(=O)c2ccc(C)nc2-c2ccc(C(F)(F)F)cc2)c(C(=O)N(C)C)c1"
< 10 nM

Dear colleague, please send me the reported IC50 for "CN(C)C(=O)c1cc(CCCC(=O)Oc2ccc(C(=O)OCc3cccc(Cl)c3)cc2)ccc1NC(=O)c1ccccc1-c1ccc(C(F)(F)F)cc1" when you can.
< 10 nM

State its IC50: "COC(=O)c1ccc(OC(=O)CCCc2ccc(NC(=O)c3ccc(C)nc3-c3ccc(C(F)(F)F)cc3)c(C(=O)N(C)C)c2)cc1"
< 10 nM

Query IC50 for "CC(=O)c1ccc(OC(=O)CCCc2ccc(NC(=O)c3ccccc3-c3ccc(C(F)(F)F)cc3)c(C(=O)N(C)C)c2)cc1"
10 to 100 nM

Query IC50 for "COc1cc(C(=O)OC(C)C)cc(Cl)c1OC(=O)CCCc1ccc(NC(=O)c2ccc(C)nc2-c2ccc(C(F)(F)F)cc2)c(C(=O)N(C)C)c1"
< 10 nM

Give recorded IC50. "COc1cccc(COC(=O)c2ccc(OC(=O)CCCc3ccc(NC(=O)c4ccccc4-c4ccc(C(F)(F)F)cc4)c(C(=O)N(C)C)c3)cc2)c1"
< 10 nM

Fill in IC50 for record "CCOC(=O)c1cc(OC)c(OC(=O)CCCc2ccc(NC(=O)c3ccc(C)nc3-c3ccc(C(F)(F)F)cc3)c(C(=O)N(C)C)c2)c(C(=O)OC)c1"
< 10 nM

Provide only the value of recorded IC50 for "COc1cc(C(=O)OCC(=O)N(C)C)cc(Cl)c1OC(=O)CCCc1ccc(NC(=O)c2ccc(C)nc2-c2ccc(C(F)(F)F)cc2)c(C(=O)N(C)C)c1"
< 10 nM

Identify measured IC50 associated with "COC(=O)c1ccc(OC(=O)CCCc2ccc(NC(=O)c3ccccc3-c3ccc(C(=O)OC)cc3)c(C(=O)N(C)C)c2)cc1"
< 10 nM

In one line, give reported IC50 of the entry "CN(C)C(=O)c1cc(CCCC(=O)Oc2ccc(-c3nnn(C)n3)cc2)ccc1NC(=O)c1ccccc1-c1ccc(C(F)(F)F)cc1" .
< 10 nM

# return recorded IC50 for input "COC(=O)c1ccc(OC(=O)CCCc2ccc(NC(=O)c3ccc(C)nc3-c3ccc(C(F)(F)F)cc3)c(C(=O)N(C)C)c2)cn1"
100 to 1000 nM

----------
Quick reference: IC50 of the listed items.
- experimental-system: Microsomal triglyceride transfer protein (MTP) from human small intestine microsome (Homo sapiens)
- Construct: Human small intestine microsome was dialyzed against 10 mM phosphate buffer; tissue Tissue Transforming Technologies, Inc; host or cells: human small intestine microsome
- test-summary: Inhibition test of interliposomal triglyceride (TG) transfer activity by MTP
- Type: biochemical
- measurement-context: purified MTP from human small intestine microsome, 37° C., 1.5 hours

# annotated cases, reported IC50 shown
[
  {
    "chemical-structure": "CC(=O)N1CCC(OC(=O)c2ccc(OC(=O)CCCc3ccc(NC(=O)c4ccccc4-c4ccc(C(F)(F)F)cc4)c(C(=O)N(C)C)c3)cc2)CC1",
    "IC50": "< 10 nM"
  },
  {
    "chemical-structure": "CN(C)C(=O)c1cc(CCCC(=O)Oc2ccc(C(=O)OCCOCc3ccccc3)cc2)ccc1NC(=O)c1ccccc1-c1ccc(C(F)(F)F)cc1",
    "IC50": "< 10 nM"
  },
  {
    "chemical-structure": "CN(C)C(=O)c1cc(CCCC(=O)Oc2ccc(-c3nnn(CC(=O)OCc4ccccc4)n3)cc2)ccc1NC(=O)c1ccccc1-c1ccc(C(F)(F)F)cc1",
    "IC50": "< 10 nM"
  },
  {
    "chemical-structure": "COC(=O)c1ccc(OC(=O)CCCc2ccc(NC(=O)c3ccccc3-c3ccc(C(F)(F)F)cc3)c(C(=O)N(C)C)c2)cc1C",
    "IC50": "< 10 nM"
  }
]

// switching to the query compound
Write down IC50 measured for item "CCCOC(=O)c1cc(Cl)c(OC(=O)CCCc2ccc(NC(=O)c3ccc(C)nc3-c3ccc(C(F)(F)F)cc3)c(C(=O)N(C)C)c2)c(OC)c1"
< 10 nM
